Listing: aPTT ratio (INR) of selected substances
- Tested on: blood coagulation
- experiment_summary: PT and aPTT assay in cynomolgus monkeys (Example 45)
- Type: in vivo
- assay_conditions: day 71; escalating dose regimen; platelet poor plasma
- Method: Groups, each consisting of two male and three female monkeys, were injected subcutaneously with ISIS 416838, ISIS 416850, ISIS 416858, ISIS 416864, or ISIS 417002 in escalating doses. […] Body weights were measured weekly. […] Blood samples were collected in tubes containing sodium citrate. PT and aPTT were determined in duplicate with an ACL 9000 coagulation instrument (Instrumentation Laboratory, Italy). […]
Form: value (number only, do not type unit).

Known aPTT ratio (INR) results, listed for orientation:
| substance | aPTT ratio (INR) |
| --- | --- |
| ISIS 416864: MOE gapmer, nucleobases 1275 to 1318 of SEQ ID NO: 1 (Table 8) (antisense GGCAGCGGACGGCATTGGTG; MOE gapmer, wing and gap sizes not given here) | 1.18 |
| ISIS 417002: MOE gapmer, nucleobases 1275 to 1318 of SEQ ID NO: 1 (Table 8) (antisense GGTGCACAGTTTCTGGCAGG; MOE gapmer, wing and gap sizes not given here) | 1.16 |
| ISIS 416850: MOE gapmer, nucleobases 1275 to 1318 of SEQ ID NO: 1 (Table 8) (antisense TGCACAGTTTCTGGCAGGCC; MOE gapmer, wing and gap sizes not given here) | 1.76 |
| ISIS 416858: MOE gapmer, nucleobases 1275 to 1318 of SEQ ID NO: 1 (Table 8) (antisense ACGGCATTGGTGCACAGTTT; MOE gapmer, wing and gap sizes not given here) | 1.70 |

Query: Param item = ISIS 416838: MOE gapmer, nucleobases 1018 to 1042 of SEQ ID NO: 1 (Table 6) (antisense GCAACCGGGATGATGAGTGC; MOE gapmer, wing and gap sizes not given here) ; retrieve measured aPTT ratio (INR).
Result: 1.15

###

Listing: percent inhibition of Factor 11 at 9.375 nM of selected substances
- Tested on: human Factor 11 mRNA
- experiment_summary: Dose-dependent inhibition of human Factor 11 in HepG2 cells, lipofectin 9.375-75 nM (Example 4)
- Format: cell-based
- assay_conditions: 9.375 nM, relative to untreated control cells
Strand notation (5' to 3'): a small letter for the sugar, then the base; units joined by * are phosphorothioate-linked, units joined directly phosphodiester-linked; [ ] holds rarer units or linkages, { } end groups; capitals alone tell only the bases. e = 2'-O-(2-methoxyethyl) (MOE); [5mC] = 5-methylcytosine; d = 2'-deoxy (DNA)
Give the quantity in %, number only.

| substance | target_desc | reported |
| --- | --- | --- |
| 416941 (antisense eG*eG*e[5mC]*dA*dG*d[5mC]*dG*dG*dA*d[5mC]*dG*dG*d[5mC]*dA*dT*dT*dG*eG*eT*eG) [compound 416941] | human Factor 11 mRNA | 33 |
| 416895 (antisense eT*eA*eT*dG*d[5mC]*d[5mC]*d[5mC]*dT*dT*d[5mC]*dA*dT*dG*dT*d[5mC]*dT*dA*eG*eG*eT) [compound 416895] | human Factor 11 mRNA | 39 |
| 416864 (antisense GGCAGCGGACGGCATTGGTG; 5-10-5 gapmer, further chemistry not given here) [compound 416864] | human Factor 11 mRNA | 18 |
| 413476 (antisense eT*eT*eG*eA*eG*dA*dT*dT*d[5mC]*dT*dT*dT*dG*dG*dG*e[5mC]*e[5mC]*eA*eT*eT) [compound 413476] | human Factor 11 mRNA | 24 |
| 413474 (antisense eA*eG*e[5mC]*eA*eA*d[5mC]*d[5mC]*dG*dG*dG*dA*dT*dG*dA*dT*eG*eA*eG*eT*eG) [compound 413474] | human Factor 11 mRNA | 29 |

Query: Param item = 416827 (antisense eT*eA*eT*eG*e[5mC]*d[5mC]*d[5mC]*dT*dT*d[5mC]*dA*dT*dG*dT*d[5mC]*eT*eA*eG*eG*eT) [compound 416827] ; retrieve measured percent inhibition of Factor 11 at 9.375 nM.
Result: 31

Query: Param item = 416892 (antisense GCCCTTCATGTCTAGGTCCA; 3-14-3 chimeric gapmer, further chemistry not given here) [compound 416892] ; retrieve measured percent inhibition of Factor 11 at 9.375 nM.
Result: 16

Query: Param item = 416973 (antisense eT*eT*dA*dT*dG*d[5mC]*d[5mC]*d[5mC]*dT*dT*d[5mC]*dA*dT*dG*dT*e[5mC]*eT*eA*eG*eG) [compound 416973] ; retrieve measured percent inhibition of Factor 11 at 9.375 nM.
Result: 60

Query: Param item = 416856 (antisense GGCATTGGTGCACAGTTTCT; 5-10-5 gapmer, further chemistry not given here) [compound 416856] ; retrieve measured percent inhibition of Factor 11 at 9.375 nM.
Result: 21

Query: Param item = 416985 (antisense eG*e[5mC]*dA*dA*d[5mC]*d[5mC]*dG*dG*dG*dA*dT*dG*dA*dT*dG*eA*eG*eT*eG*e[5mC]) [compound 416985] ; retrieve measured percent inhibition of Factor 11 at 9.375 nM.
Result: 17

Query: Param item = 416838 (antisense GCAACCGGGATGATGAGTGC; 5-10-5 gapmer, further chemistry not given here) [compound 416838] ; retrieve measured percent inhibition of Factor 11 at 9.375 nM.
Result: 31

Query: Param item = 416931 (antisense eG*eG*e[5mC]*dA*dT*dT*dG*dG*dT*dG*d[5mC]*dA*d[5mC]*dA*dG*dT*dT*eT*e[5mC]*eT) [compound 416931] ; retrieve measured percent inhibition of Factor 11 at 9.375 nM.
Result: 44
